EXPERIMENTAL_SYSTEM: full-length Tau (hTau40WT) (Homo sapiens, UniProt P10636)
Construct: recombinant wild type human full-length Tau (hTau40WT)
Sequence (P10636 2-441 isoform P10636-8): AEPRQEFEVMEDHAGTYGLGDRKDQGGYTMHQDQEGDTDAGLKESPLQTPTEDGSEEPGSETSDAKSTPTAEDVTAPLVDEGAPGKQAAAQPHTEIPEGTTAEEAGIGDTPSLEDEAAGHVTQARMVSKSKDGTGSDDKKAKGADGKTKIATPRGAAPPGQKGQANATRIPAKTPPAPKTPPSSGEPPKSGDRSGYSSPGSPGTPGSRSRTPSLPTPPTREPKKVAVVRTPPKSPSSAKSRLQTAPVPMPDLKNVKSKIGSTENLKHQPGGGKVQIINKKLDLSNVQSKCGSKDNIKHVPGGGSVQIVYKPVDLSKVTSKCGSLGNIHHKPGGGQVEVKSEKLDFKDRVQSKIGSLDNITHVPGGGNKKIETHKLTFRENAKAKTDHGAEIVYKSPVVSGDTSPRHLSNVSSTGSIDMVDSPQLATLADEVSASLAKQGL
PROTOCOL_DESCRIPTION: ThS fluorescence inhibition of heparin-induced aggregation of purified Tau; supported by ANS, SDS-PAGE, CD, TEM; dissolves preformed fibrils (DC50 […])
pIC50: −log10 of the molar value.
ENDPOINT: pIC50

[[record]]
structure_smiles_string = "O=c1cc(-c2ccccc2)oc2cc(O)c(O)c(O)c12"
experimental_system = "full-length Tau (hTau40WT) (Homo sapiens, UniProt P10636)"
result = 4.56

